Attribution: patent US9315482B2

Test: Metabolic stability over human liver microsomes
Format: in vitro ADME
Conditions: human liver microsomes 0.5 mg/mL, 1 mM NADPH, 2.5 μM compound, 37 °C; read-out: Intrinsic Clearance
MEASUREMENT_TYPE: microsomal CLint at 2.5 μM (µL/min/mg)
Use µL/min/mg as the unit, but write only the number.

The reported value for C=Cc1cccc(-c2coc3c2C(=O)CCC3)c1 [GAC50] in terms of microsomal CLint at 2.5 μM is 49.1

* * *

MEASUREMENT_TYPE: melting point

The reported value for `O=C1CCCc2occ(-c3cccc(Br)c3)c21` in terms of melting point is 106 to 107 °C

The reported value for `O=C1CCCc2occ(-c3cccc([N+](=O)[O-])c3)c21` in terms of melting point is 94 to 95 °C

The reported value for O=c1oc2ccccc2c2c1C(c1c[nH]c3ccccc13)C([N+](=O)[O-])O2 (stereo not drawn) [Example 123-G05] in terms of melting point is 248 to 250 °C (dec.)

The reported value for `COc1ccc(Cl)cc1-c1coc2c1C(=O)CCC2` in terms of melting point is 136 to 137 °C

The reported value for `O=C1CCCc2occ(-c3ccc(Cl)cc3)c21` in terms of melting point is 104 to 105 °C

The reported value for O=C1CCCC2=C1C(c1ccccc1Cl)C([N+](=O)[O-])O2 (stereo not drawn) in terms of melting point is 162 to 163 °C
